We begin with a simple list: items and their reported relative IC50.
Tested on: S1507-2
PROCEDURE DETAILS: relative IC50 (inflection point of fitted dose-response curve, CellTiter-Glo viability, 72 h; top asymptote may be below 50% inhibition); higher = less potent
OUTCOME MEASURE: relative IC50

• N[C@@H](CSC(c1ccccc1)(c1ccccc1)c1ccccc1)C(=O)O = > 40 µM
• CCN(CC)CCCC(C)Nc1c2ccc(Cl)cc2nc2ccc(OC)cc12 (centres undefined) = 1.07 µM
• Cc1nc(C(=O)NCC(=O)O)c(O)c2ccc(Oc3ccccc3)cc12 = > 10 µM
• CNC(=O)c1cc(Oc2ccc(NC(=O)Nc3cc(C(C)(C)C)nn3-c3ccc4ncccc4c3)c(F)c2)ccn1 = > 1 µM
• CC(=O)Nc1cccc(-n2c(=O)n(C3CC3)c(=O)c3c(Nc4ccc(I)cc4F)n(C)c(=O)c(C)c32)c1 = 0.0152 µM
• COc1cc2nccc(Oc3ccc(NC(=O)Nc4cc(C)on4)c(Cl)c3)c2cc1OC = 0.0189 µM
• CN(C)c1nc(N(C)C)nc(N(C)C)n1 = > 10 µM
• COc1cc(Nc2ncc(F)c(Nc3ccc4c(n3)NC(=O)C(C)(C)O4)n2)cc(OC)c1OC = > 10 µM
• CN(C)CCN1C(=O)c2cccc3cc(N)cc(c23)C1=O [Amonafide] = 1.36 µM

###

System: STS26T
PROCEDURE DETAILS: relative IC50 (inflection point of fitted dose-response curve, CellTiter-Glo viability, 72 h; top asymptote may be below 50% inhibition); higher = less potent
OUTCOME MEASURE: relative IC50 (nM)

- Cc1cnc(Nc2ccc(F)cc2Cl)nc1-c1c[nH]c(C(=O)N[C@H](CO)c2cccc(Cl)c2)c1 [VX-11E]: 830
- COc1cc([C@@H]2c3cc4c(cc3[C@@H](O[C@@H]3O[C@@H]5CO[C@@H](c6cccs6)O[C@H]5[C@H](O)[C@H]3O)[C@H]3COC(=O)[C@H]23)OCO4)cc(OC)c1O [Teniposide]: 227
- C=CCNC1=C2C[C@@H](C)C[C@H](OC)[C@H](O)[C@@H](C)/C=C(\C)[C@H](OC(N)=O)[C@@H](OC)/C=C\C=C(/C)C(=O)NC(=CC1=O)C2=O: 108
- COc1cc(O)c2c(c1)/C=C/C[C@H](O)[C@H](O)C(=O)/C=C\C[C@H](C)OC2=O: 1360
- Nc1nc(NC2CC2)cc(-c2cccc(Cl)c2Cl)n1: 3710
- CC[C@@]1(O)C(=O)OCc2c1cc1n(c2=O)Cc2cc3ccccc3nc2-1: 62.8
- CO[C@H](C(=O)[C@@H](O)[C@@H](C)O)[C@@H]1Cc2cc3cc(O[C@H]4C[C@@H](O[C@H]5C[C@@H](O)[C@H](O)[C@@H](C)O5)[C@@H](O)[C@@H](C)O4)c(C)c(O)c3c(O)c2C(=O)[C@H]1O[C@H]1C[C@@H](O[C@H]2C[C@@H](O[C@H]3C[C@](C)(O)[C@H](O)[C@@H](C)O3)[C@H](O)[C@@H](C)O2)[C@H](O)[C@@H](C)O1: 47.5

###

System: HS-Sch-2
PROCEDURE DETAILS: drug sensitivity score (DSS, CellTiter-Glo viability, 72 h) (DSS (dimensionless)); higher = more sensitive; extreme values may be limits of the assay
OUTCOME MEASURE: drug sensitivity score

• CC(=O)c1cnc2ccc(-c3cc(Cl)c(O)c(Cl)c3)nc2c1N[C@H]1CC[C@H](CN(C)C)CC1 [OTSSP167] (max concentration tested 1000 nM) = 18.5
• CC[C@H](CO)Nc1nc(NCc2ccccc2)c2ncn(C(C)C)c2n1 [Seliciclib] (max concentration tested 10000 nM) = 0.52
• COc1cc([C@@H]2c3cc4c(cc3[C@@H](O[C@@H]3O[C@@H]5CO[C@@H](c6cccs6)O[C@H]5[C@H](O)[C@H]3O)[C@H]3COC(=O)[C@H]23)OCO4)cc(OC)c1O [Teniposide] (max concentration tested 10000 nM) = 14
• CC(C)Oc1ccc(C(=O)N[C@H](CNC(=O)CN(C)C)Cc2ccc(-c3cn4cccc([C@H](C)O)c4n3)cc2)cc1Cl (max concentration tested 10000 nM) = 24.1
• O=C(Nc1cc(Cl)cc2c1[nH]c1cnccc12)c1cccnc1 [PS-1145] (max concentration tested 25000 nM) = 0

// provenance: the supplement of paper PMC5579334
